Hello, the source for this data is the supplement of paper PMC10567573, in case you need it.

B1: TPD52L1 (parent)
chain: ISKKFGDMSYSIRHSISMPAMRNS

Variants of: B1
assay-protocol: protein stability index of a GFP-peptide fusion (GPS, HEK-293T) (PSI 1-6); higher = more stable;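 also: lentivirally expressed fusions sorted by FACS into six bins by GFP to DsRed ratio, PSI derived from sequencing read proportions per bin multiplied by bin number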
condition-parameters: c terminus: a fixed tail appended
attribute-measured: protein stability index
Reply with just the number.

-- ask Value lookup for protein stability index; key = S9T
-- reply 2

-- ask Value lookup for protein stability index; key = N23L
-- reply 1.98

-- ask Value lookup for protein stability index; key = S17A
-- reply 2.01

-- ask Value lookup for protein stability index; key = R13Q
-- reply 2.05

-- ask Value lookup for protein stability index; key = R22C
-- reply 1.97

-- ask Value lookup for protein stability index; key = A20S
-- reply 2.04

-- ask Value lookup for protein stability index; key = P19N
-- reply 2.04

-- ask Value lookup for protein stability index; key = K4G
-- reply 2

-- ask Value lookup for protein stability index; key = A20M
-- reply 1.95

-- ask Value lookup for protein stability index; key = P19A
-- reply 1.98

-- ask Value lookup for protein stability index; key = M18S
-- reply 2.05

-- ask Value lookup for protein stability index; key = M18L
-- reply 2.01
